Source of measurements: patent US8741910B2

measurement target: sGC α1/β1 heterodimer (Homo sapiens, UniProt Q02108+Q02153)
Sequence (Q02108 whole entry): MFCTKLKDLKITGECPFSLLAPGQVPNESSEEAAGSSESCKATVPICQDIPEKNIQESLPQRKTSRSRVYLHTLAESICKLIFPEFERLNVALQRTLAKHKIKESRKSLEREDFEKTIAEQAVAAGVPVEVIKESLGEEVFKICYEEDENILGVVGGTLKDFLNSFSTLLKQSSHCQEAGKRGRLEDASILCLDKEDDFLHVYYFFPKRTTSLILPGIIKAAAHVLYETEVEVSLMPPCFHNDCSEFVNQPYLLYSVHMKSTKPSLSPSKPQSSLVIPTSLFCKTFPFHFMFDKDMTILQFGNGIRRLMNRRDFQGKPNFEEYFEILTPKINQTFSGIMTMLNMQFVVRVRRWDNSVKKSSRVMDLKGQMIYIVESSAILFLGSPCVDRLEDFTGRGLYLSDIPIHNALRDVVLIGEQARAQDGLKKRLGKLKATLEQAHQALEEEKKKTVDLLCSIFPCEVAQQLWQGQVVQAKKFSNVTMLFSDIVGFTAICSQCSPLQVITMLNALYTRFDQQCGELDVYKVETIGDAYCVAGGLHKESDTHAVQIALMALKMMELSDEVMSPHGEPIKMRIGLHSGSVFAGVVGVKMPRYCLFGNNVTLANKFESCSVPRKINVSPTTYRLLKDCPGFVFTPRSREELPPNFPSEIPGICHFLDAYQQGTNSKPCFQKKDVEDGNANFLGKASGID
Sequence (Q02153 whole entry): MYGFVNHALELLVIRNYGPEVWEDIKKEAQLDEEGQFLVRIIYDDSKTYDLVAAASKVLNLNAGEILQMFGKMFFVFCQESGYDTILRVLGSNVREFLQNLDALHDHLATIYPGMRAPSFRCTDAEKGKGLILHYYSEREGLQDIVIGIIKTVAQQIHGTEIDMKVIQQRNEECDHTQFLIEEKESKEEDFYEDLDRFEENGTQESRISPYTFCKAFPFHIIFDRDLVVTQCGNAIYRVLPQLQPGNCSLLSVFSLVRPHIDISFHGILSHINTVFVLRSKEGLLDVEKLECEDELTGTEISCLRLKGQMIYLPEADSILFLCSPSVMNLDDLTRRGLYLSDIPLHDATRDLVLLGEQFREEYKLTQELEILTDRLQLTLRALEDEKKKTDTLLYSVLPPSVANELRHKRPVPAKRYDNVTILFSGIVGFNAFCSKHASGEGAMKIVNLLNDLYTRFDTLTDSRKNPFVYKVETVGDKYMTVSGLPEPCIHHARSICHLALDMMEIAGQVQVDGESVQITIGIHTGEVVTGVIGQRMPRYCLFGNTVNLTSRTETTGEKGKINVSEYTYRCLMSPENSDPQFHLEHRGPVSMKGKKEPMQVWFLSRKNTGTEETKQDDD
experimental details: Cell-Based sGC Functional Assay (CASA Assay)
conditions used: CHO-K1/sGC cells, intracellular cGMP by HTRF, 1 hr at 37 °C
observed property: EC50 (nM)
One number for each entry, in nM.

{"molecule": "CC1(C)C(=O)Nc2nc(-c3nc(Cc4c(F)ccc(F)c4F)n4cc(Cl)ccc34)nc(N)c21 [Example 59]", "EC50, nM": 24}
{"molecule": "CC1(C)C(=O)Nc2nc(-c3nn(CCC(F)(F)C(F)(F)F)c4cc(Cl)ccc34)nc(N)c21 [Example 111]", "EC50, nM": 83}

Turning to the following molecule.
So for CC1(C)C(=O)Nc2nc(-c3nc(Cc4c(F)ccc(F)c4F)n4cc(F)ccc34)nc(N)c21 [Example 60] , the logged EC50 turned out to be 31
